- test.system: Genome polyprotein (Hepatitis C virus genotype 1b (isolate BK), UniProt P26663)
- Sequence (P26663 2420-3010 limits assumed): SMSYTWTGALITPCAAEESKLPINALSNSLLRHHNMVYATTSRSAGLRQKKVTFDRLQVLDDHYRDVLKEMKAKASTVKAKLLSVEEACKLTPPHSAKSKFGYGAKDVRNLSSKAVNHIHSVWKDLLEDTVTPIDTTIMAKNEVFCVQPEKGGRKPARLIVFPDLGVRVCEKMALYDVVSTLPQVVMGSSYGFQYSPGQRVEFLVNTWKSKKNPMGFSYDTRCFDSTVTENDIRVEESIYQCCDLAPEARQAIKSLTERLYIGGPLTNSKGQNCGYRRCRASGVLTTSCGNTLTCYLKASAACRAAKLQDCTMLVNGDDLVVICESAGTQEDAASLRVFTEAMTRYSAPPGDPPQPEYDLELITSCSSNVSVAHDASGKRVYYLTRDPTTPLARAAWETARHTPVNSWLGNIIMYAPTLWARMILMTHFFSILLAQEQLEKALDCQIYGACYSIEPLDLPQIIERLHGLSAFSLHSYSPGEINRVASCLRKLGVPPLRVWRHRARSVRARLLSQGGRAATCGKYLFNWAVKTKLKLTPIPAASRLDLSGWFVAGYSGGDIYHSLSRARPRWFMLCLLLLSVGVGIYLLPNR
- procedure.summary: NS5B Inhibition Assay
- condition.details: pH 7; 30 °C
attribute.measured: IC50 (µM)

1. C=CCOc1cc(OCC=C)c2c(C)cc(=O)oc2c1 : 38.4
2. C=CCc1c(O)c(CC=C)c2oc(=O)ccc2c1O : 17.9
3. COc1cc(OC)c2c(-c3ccccc3)cc(=O)oc2c1 : 63
4. O=c1cc(-c2ccccc2)c2c(O)cc(O)cc2o1 : 27
5. COc1cc(OC)c2c(C)cc(=O)oc2c1 : 54.1
6. C=CCc1c(O)c(CC=C)c2oc(=O)cc(-c3ccccc3)c2c1O : 45.8
7. O=c1ccc2ccc(O)cc2o1 : 36.6
8. O=c1cc(-c2ccccc2)c2ccc(O)cc2o1 [7-Hydroxy-4-phenyl-chromen-2-one] : 41.6
9. COc1cc2c(cc1O)oc(=O)c1c3cc(O)c(O)cc3oc21 : 18
